- System: HCT116;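 further: HCT116 colorectal carcinoma cells screened at five concentrations per compound, luminescent viability scaled between DMSO wells and empty wells on each plate, curves fitted per compound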
- runDescription: AC50 cell viability (CellTiter-Glo); higher = less potent
- particulars: 48 h
Counter-ions that a name gives are not always drawn.
Listed here: items and their measured AC50 cell viability.
experimentalReadout: AC50 cell viability

• CO[C@H]1C[C@H]2OC[C@@]2(OC(C)=O)[C@H]3[C@H](OC(=O)C4=CC=CC=C4)[C@]5(O)C[C@H](OC(=O)[C@H](O)[C@@H](NC(=O)OC(C)(C)C)C6=CC=CC=C6)/C(=C(/[C@@H](OC)C(=O)[C@]13C)C5(C)C)C = 2.63 nM
• Cn1cc(-c2ccc([S+](=O)([O-])n3ccc(/C=C/C(=O)Nc4ccccc4N)c3)cc2)cn1 = 1480 nM
• CCCCNc1ncc2c(-c3ccc(F)cc3)nn(C[C@H]3CC[C@H](N)CC3)c2n1 = 7230 nM
• CC/1=C/C(=O)N(O)/C(=C1)C2CCCCC2 = 3720 nM
• COc1cc([C@@H]2c3cc4c(cc3[C@@H](O[C@@H]3O[C@@H]5CO[C@@H](C)O[C@H]5[C@H](O)[C@H]3O)[C@H]3COC(=O)[C@H]23)OCO4)cc(OC)c1O [Etoposide] = 2950 nM
• CC1(C)OCCn2c1nc1c(N3CCOCC3)nc(-c3cnc(N)nc3)nc12 = 833 nM
• Cc1nc(NC(=O)N2CCC[C@H]2C(N)=O)sc1-c1csc(C(C)(C)C)n1 = 1860 nM
• CCCCNc1ncc2c(-c3ccc(CN4CCN(C)CC4)cc3)cn(C3CCC(O)CC3)c2n1 (centres undefined) = 1660 nM
• C#CCC(Cc1cnc2nc(N)nc(N)c2n1)c1ccc(C(=O)N[C@@H](CCC(=O)O)C(=O)O)cc1 (some centres undefined) [Pralatrexate] = 4.68 nM
• O=C(c1ccc(F)c(F)c1Nc1ccc(I)cc1F)N1CC(O)([C@@H]2CCCCN2)C1 = 1860 nM
• CC1(C)C(N(O)C(=O)Nc2ccc(Cl)cc2)N(c2ccc(Cl)cc2)C(=O)N1CC(=O)N/N=C/C=C/c1ccc([N+](=O)[O-])o1 (centres undefined) = 8330 nM
• Cc1ccc(NC(=O)c2ccc(CN3CCN(C)CC3)cc2)cc1Nc1nccc(-c2cccnc2)n1 = 16600 nM
• CNCCCC12CCC(c3ccccc31)c1ccccc12 [Maprotiline hydrochloride] = 20900 nM
• CNC(=O)c1ccccc1Nc1nc(Nc2ccc(N3CCOCC3)cc2OC)ncc1Cl = 833 nM
